# Test system: HL-60(TB) leukemia
# measurement-description: NCI tumour cell line growth inhibition, 48 h
Measured log10 of TGI of individual entries
Heads up: the numbers are on a log10 scale; they represent TGI in µM.

Example compounds with recorded log10 of TGI:
- COC(=O)C1(C)CCCC2(C)c3cc(OC)ccc3C(=O)C(Br)C12 (centres undefined): 0.62
- O=c1c2cc(S(=O)(=O)Nc3ccc(Cl)cc3Cl)ccc2ncn1NS(=O)(=O)c1cccc2ccccc12: 1.57
- COc1cc([N+](=O)[O-])ccc1NC(=O)c1cccc([N+](=O)[O-])c1O: 1.74

**Query** Recorded log10 of TGI of `Nc1nnc2oc3ccc4ccccc4c3cc1-2` , please.
**Result** 1.83

**Query** Recorded log10 of TGI of COC1=CC(=O)C2C(C1=O)C(c1ccc(Cl)cc1)[C@@H]2C (some centres undefined) , please.
**Result** 1.75

**Query** Recorded log10 of TGI of COC(=O)NC1C(C)OC(OC2C/C=C(/C)C3C=CC4C(OC5CC(OC6CC(OC7CC(O)C(O)C(C)O7)C(OC7CC(O)C(OC)C(C)O7)C(C)O6)C(O)C(C)O5)C(C)CC(C)C4C3(C)/C(O)=C3\C(=O)OC4(CC(C)C(CO)=CC4/C=C\2C)C3=O)CC1(C)[N+](=O)[O-] (centres undefined) , please.
**Result** 1.06

---

# System: BT-549 breast
# measurement-description: NCI tumour cell line growth inhibition, 48 h
Quick rule for you: TGI at 30 µM or higher means criterion met, lower means criterion not met.

* COc1c2ccccc2c(O)c2c(=O)ccn(C)c12 | criterion met

**Query** Check this compound for TGI at or above 30 µM: `C#Cc1ccc(-n2c(/C=C/c3ccc4ccccc4c3)nc3ncccc3c2=O)cc1`
**Result** criterion not met

**Query** Check this compound for TGI at or above 30 µM: CC12CC(=O)C3C(CCC4=CC(=O)CCC43C)C1CC=C2CC(=O)O (stereo not drawn)
**Result** criterion met

**Query** Check this compound for TGI at or above 30 µM: `C[C@H](c1ccccc1)N(CCC(=O)O)C(=O)CCN(C(=O)CCN(C(=O)CCN[C@H](C)c1ccccc1)[C@H](C)c1ccccc1)[C@H](C)c1ccccc1`
**Result** criterion met

**Query** Check this compound for TGI at or above 30 µM: Cc1cc2c(cc1Cl)SC(C(=O)c1ccc(Cl)c(Cl)c1)NS2(=O)=O (stereo not drawn)
**Result** criterion met

**Query** Check this compound for TGI at or above 30 µM: `Nc1nc(OCC2CCCCC2)c2[nH]cnc2n1`
**Result** criterion met

---

Notes on GI50 obtained with U251 CNS.

* C#Cc1ccc(-n2c(/C=C/c3ccc4ccccc4c3)nc3ncccc3c2=O)cc1 | 3.69 µM
* Cc1cc2c(cc1Cl)SC(C(=O)c1ccc(Cl)c(Cl)c1)NS2(=O)=O (configuration not stated) | 34.4 µM
* COC(=O)[C@]12CC[C@@H](C)[C@H](C)[C@@H]1C1=CC[C@@H]3[C@@]4(C)CC(=O)[C@H](O)[C@@](C)(CO)[C@@H]4C(=O)C[C@@]3(C)[C@]1(C)CC2 | 11.7 µM
* CC(C)[C@H](C(=O)O[C@@H]1/C=C/C(=O)O[C@@H](C)CCC/C=C/[C@@H]2C[C@H](O)C[C@H]21)N(C)C | 20.3 µM
* O=C1N=C(Nc2nc(-c3csc(NC4=NC(=O)/C(=C\c5ccc(Cl)cc5)S4)n3)cs2)S/C1=C/c1ccc(Cl)cc1 | 4.83 µM
* Cn1cc(C2=C(c3c(S(C)=O)n(C)c4ccccc34)C(=O)NC2=O)c2ccccc21 (configuration not stated) | 8.64 µM

For the next question, use this compound.
**Query** Recorded GI50 of `OCc1ccc(N(Cc2ccc(F)cc2)CC2CCC2)cc1Cl` , please.
**Result** 5.43 µM

---

# Test system: COLO 205 colon
# measurement-description: NCI tumour cell line growth inhibition, 48 h
assay-endpoint: TGI (µM)
Number only, in µM; omit the unit.

• O=C(Nc1ccccc1)Nc1ccc(Cl)c(Cl)c1 = 11.1

For the next question, use this compound.
**Query** Recorded TGI of `COC(=O)c1ccc2c(C(=Nc3ccc(N(C)C(=O)CN4CCN(C)CC4)cc3)c3ccccc3)c(O)[nH]c2c1` , please.
**Result** 46.4

---

Measured TGI of individual entries
# Tested on: RXF 393 renal
# measurement-description: NCI tumour cell line growth inhibition, 48 h

• CNc1ncnc2c1cnn2CCCCO = > 100 µM

**Query** Observed TGI on RXF 393 renal for `O=C(O)c1nc2ccccc2nc1NCc1ccc(F)cc1` , please.
**Result** > 100 µM

**Query** Observed TGI on RXF 393 renal for `O=c1c2ccccc2nc2sc(/N=C/C=C/c3ccccc3)nn12` , please.
**Result** > 100 µM

**Query** Observed TGI on RXF 393 renal for `COc1cc(/C=C/c2cc(O)c(C/C=C(\C)CC/C=C(\C)CO)c(O)c2)cc2c1O[C@]1(C)CC[C@@H](O)C(C)(C)[C@H]1C2` , please.
**Result** > 100 µM

**Query** Observed TGI on RXF 393 renal for `COc1cc2c(cc1OC)C(=O)/C(=C/c1cc(Cl)cc(Cl)c1)C2` , please.
**Result** > 100 µM

**Query** Observed TGI on RXF 393 renal for `O=C(NCCCNCCCCNCCCNC(=O)c1cc(-c2ccccc2)nc2ccccc12)c1cc(-c2ccccc2)nc2ccccc12` , please.
**Result** 74.2 µM

**Query** Observed TGI on RXF 393 renal for CC1(O)COCCCCOc2c(CN)cccc2NC(=O)c2nc(cnc2N)-c2ccc(cc2)S(=O)(=O)C(C)(C)C1 (stereo not given) , please.
**Result** 1.87 µM

**Query** Observed TGI on RXF 393 renal for `c1ccc([P+](c2ccccc2)(c2ccccc2)c2ccc(-c3ccc([P+](c4ccccc4)(c4ccccc4)c4ccccc4)cc3)cc2)cc1` , please.
**Result** > 100 µM

**Query** Observed TGI on RXF 393 renal for `COc1ccc(/C=C2/CN(CCC#N)C/C(=C\c3ccc(OC)cc3)C2=O)cc1` , please.
**Result** 3.29 µM

**Query** Observed TGI on RXF 393 renal for `CCOC(=O)C1=C(c2ccccc2)N(C(C)=O)Cc2ccccc21` , please.
**Result** 68.2 µM

---

# Test system: COLO 205 colon
# measurement-description: NCI tumour cell line growth inhibition, 48 h; in the data active = GI50 below about 0.43 µM; inactive = the rest
Lab note: assign the record to one of active, inactive

- COc1ccc2c(c1)N(CCO)C1=C(C(=O)OC1)C2c1ccc(OC)c(OC)c1 (stereo not drawn): inactive
- CCN1C(=O)N(CC)C2C1NN=c1s/c(=C\c3ccc(OC)cc3)c(=O)n12 (stereo not drawn): active
- COC(=O)[C@]12CC[C@@H](C)[C@H](C)[C@@H]1C1=CC[C@@H]3[C@@]4(C)CC(=O)[C@H](O)[C@@](C)(CO)[C@@H]4C(=O)C[C@@]3(C)[C@]1(C)CC2: inactive

**Query** How did this test come out for `CCCc1n(Cc2ccc3ccccc3n2)cc[n+]1Cc1ccc2ccccc2n1` ?
**Result** inactive

**Query** How did this test come out for `CCc1ccc2c(c1)C(=O)c1c-2n(CCCN)c(=O)c2cc([N+](=O)[O-])ccc12` ?
**Result** inactive

**Query** How did this test come out for `CC(C)[C@H](C(=O)O[C@@H]1/C=C/C(=O)O[C@@H](C)CCC/C=C/[C@@H]2C[C@H](O)C[C@H]21)N(C)C` ?
**Result** inactive

**Query** How did this test come out for `COc1cc(-c2nn(-c3cccc(NC(=O)CCN4CCN(C)CC4)c3)cc2-c2ccncc2)ccc1Cl` ?
**Result** inactive

**Query** How did this test come out for `O=C(O)c1cn(C2CC2)c2cc(N3CCN(Cc4ccc5ccccc5c4O)CC3)c(F)cc2c1=O` ?
**Result** inactive

---

# Test system: UACC-257 melanoma
# measurement-description: NCI tumour cell line growth inhibition, 48 h
assay-endpoint: TGI

Example molecules with recorded TGI:
• C=C(CO)[C@H]1Oc2ccc(C(C)=O)cc2[C@@H]1O = > 100 µM
• CCSc1nnc(-c2ccccc2)nc1Cc1ccc(OC)cc1 = > 100 µM
• CCn1c(O)c(C=Nc2ccccc2)s/c1=N/Nc1nc(-c2ccc(O)c(O)c2)cs1 = > 100 µM
• N=C1C(c2nc3ccccc3s2)=C(O)CN1c1cc(Cl)cc(Cl)c1 = > 100 µM
• ClCCCCOC1CCCCO1 (stereo unspecified) = > 100 µM
• COC(=O)C1=C(\O)C[C@@]2(C)CC[C@@H](C(=O)OC)C2C/C=C\1C(=O)OC (stereo partly specified) = > 100 µM
• O=c1c2ccccc2nc2sc(/N=C/C=C/c3ccccc3)nn12 = > 100 µM
• CCOC(=O)C1=C(c2ccccc2)N(C(C)=O)Cc2ccccc21 = 34.6 µM

**Query** Recorded TGI of C[n+]1c2ccccc2c(CNC(CS)C(=O)O)c2ccccc21 (stereo unspecified) , please.
**Result** > 100 µM

**Query** Recorded TGI of `CSc1ccc(/C=C2\N=C(c3ccccc3)N(/N=C3\C(=O)Nc4ccccc43)C2=O)cc1` , please.
**Result** > 100 µM

**Query** Recorded TGI of `c1c2c(cc3c1OCO3)-c1cc3ccc4c(c3c[n+]1CC2)OCO4` , please.
**Result** > 12.5 µM

// provenance: PubChem BioAssay (NCI)
